Tested on: Cryptococcus neoformans
MIC listing for selected molecules.
Number only, in µM; omit the unit.

Take a look at these entries with their results.
SMILES STR	READOUT NUMBER
O=S1(=O)C=C(Sc2nnc(C3CCCCC3)o2)c2ccccc21	7
O=S1(=O)C=C(Sc2nnc(-c3ccncc3)o2)c2ccccc21	9
C[C@@H]1[C@H](O)[C@@H](C)/C=C/C=C/C=C/C=C/C=C/C=C/C=C/[C@H](O[C@@H]2O[C@H](C)[C@@H](O)[C@H](N)[C@@H]2O)C[C@@H]2O[C@](O)(C[C@@H](O)C[C@@H](O)[C@H](O)CC[C@@H](O)C[C@@H](O)CC(=O)O[C@H]1C)C[C@H](O)[C@H]2C(=O)O	0.25
COc1cccc(-c2nnc(SC3=CS(=O)(=O)c4ccccc43)o2)c1	8
COc1ccccc1-c1nnc(SC2=CS(=O)(=O)c3ccccc32)o1	64

Please turn your attention to the following entry.
The molecule "OC(Cn1cncn1)(Cn1cncn1)c1ccc(F)cc1F" on Cryptococcus neoformans: MIC was 0.3
